meta.source: PubChem BioAssay (NCI)

Test system: HS 578T breast
Assay name: NCI tumour cell line growth inhibition, 48 h

Compound: NS(=O)(=O)c1cc2c(cc1Cl)NCNS2(=O)=O
TGI: > 100 µM
//
Compound: N#CC1=C(N)Oc2c(ccc3ccccc23)C1c1cc2ccccc2n2nnnc12 (stereo unspecified)
TGI: 49.3 µM
//
Compound: Cc1ccc2c(c1C)CC1(Cc3ccc(C)c(C)c3C1=O)C2=O (stereo unspecified)
TGI: > 100 µM
//
Compound: NCCc1ccc(S(=O)(=O)O)cc1[N+](=O)[O-]
TGI: > 100 µM
//
Compound: COC(=O)C(C)NP(=O)(OCc1cccc(Cn2cnc3c(N)ncnc32)c1)Oc1ccccc1 (stereo unspecified)
TGI: > 100 µM
//
Compound: COc1cc2c(cc1C)NC(=O)/C2=C\c1ccc(Oc2ccccc2)cc1
TGI: 46.9 µM

* * *

System: HCT-116 colon
Assay name: NCI tumour cell line growth inhibition, 48 h
Collected TGI values appear next to each entry.

Molecule: C/C(=C\c1ccccc1)C(O)C(=O)c1nc2ccc(Cl)cc2[nH]c1=O (stereo not given)
Inequality symbol: >
TGI [µM]: 100
//
Molecule: FC(F)(F)c1cccc(CNC2CCN(CCc3ccccc3)CC2)c1
Inequality symbol: =
TGI [µM]: 76.7
//
Molecule: NC(Cc1cc(I)c(Oc2ccc(O)c(I)c2)c(I)c1)C(=O)O (stereo not given)
Inequality symbol: >
TGI [µM]: 100
//
Molecule: CC(=O)Oc1ccc(-c2nnc(-c3ccc(OC(C)=O)cc3)nn2)cc1
Inequality symbol: >
TGI [µM]: 100
//
Molecule: CC(C)CCCC(C)C1CCC2C3CC([N+](=O)[O-])=C4CC(O)CCC4(C)C3CCC12C (stereo not given)
Inequality symbol: =
TGI [µM]: 28.9

* * *

Test system: RPMI-8226 leukemia
Assay name: NCI tumour cell line growth inhibition, 48 h; in the data active = GI50 below about 0.43 µM; inactive = the rest
Outcomes: 1 = active, 0 = inactive

Molecule: C/C(=C\c1csc(C)n1)[C@@H]1C[C@@H]2O[C@]2(C)CCC[C@H](C)[C@H](O)[C@@H](C)C(=O)C(C)(C)[C@@H](O)CC(=O)N1
Qualitative label: 1
//
Molecule: COc1ccc([C@@H]2[C@@H](Oc3ccccc3)C(=O)N2c2cc(OC)c(OC)c(OC)c2)cc1F
Qualitative label: 1
//
Molecule: O=C1[C@H](Cc2ccc(O)cc2)N2C(=O)CCN(C(=O)NCc3ccccc3)[C@H]2CN1Cc1cccc2ccccc12
Qualitative label: 0
//
Molecule: C=CCN(CC=C)Cc1c[nH]c2ccccc12
Qualitative label: 0
//
Molecule: CN(c1ccccc1)c1c2ccccc2nc2[nH]c3ccccc3c12
Qualitative label: 0
//
Molecule: CCOC(=O)C#Cc1c(C(=O)OCC)nnn1[C@@H]1O[C@H](COC)[C@@H](OC)[C@H]1OC
Qualitative label: 0
//
Molecule: COc1ccccc1CNCCCN1C(=O)c2ccc3c4c(ccc(c24)C1=O)C(=O)N(CCCNCc1ccccc1OC)C3=O
Qualitative label: 1
//
Molecule: O=C1NC(=NCc2cccs2)O/C1=C\c1ccc2ncccc2c1
Qualitative label: 0
//
Molecule: CCN1CCN(CC(=O)Nc2nc3ccc(NCc4ccc(Br)cc4)cc3s2)CC1
Qualitative label: 0
//
Molecule: CC(=O)O[C@H]([C@H](OC(C)=O)[C@H](C)OC(C)=O)[C@@H](/C=C/[C@H]1CC=CC(=O)O1)OC(C)=O
Qualitative label: 0
//
Molecule: OCc1ccc(N2CCc3ccc(F)cc3C2)cc1Cl
Qualitative label: 1
//
Molecule: COc1nc(N)nc2nc[nH]c12
Qualitative label: 0
//
Molecule: COc1cc(/C=C/c2cc(/C=C/c3ccc(O)c(OC)c3)n(C(=O)Nc3ccc(C)cc3)n2)ccc1O
Qualitative label: 1
//
Molecule: O=C1c2ccccc2-c2c1c1c(O)cccc1n2Cc1ccccc1
Qualitative label: 0
//
Molecule: Oc1c(Br)cc(Cl)cc1C(c1cc(Cl)cc(Br)c1O)C(Cl)(Cl)Cl
Qualitative label: 0
//
Molecule: O=S(=O)(Nc1ccccc1)c1ccc(C2CC3(Cl)C(Cl)=C(Cl)C2(Cl)C3(Cl)Cl)cc1 (stereo not given)
Qualitative label: 0
//
Molecule: C#CCCCCCC(=O)N[C@H]1C=C[C@@H]2/C=C(C)/C=C/[C@@H](C)[C@H]([C@H](C)[C@H](O)[C@@H](C)NC(C)=O)OC(=O)/C=C/C=C(C)\C=C\[C@]2(C)C1
Qualitative label: 1
//
Molecule: O=c1c(Oc2ccc(F)cc2F)cc2cnc(NC3CCOCC3)nc2n1C1CC1
Qualitative label: 0
//
Molecule: O=[N+]([O-])c1ccc(N/N=C\c2cc(Br)ccc2O)nc1
Qualitative label: 0
//
Molecule: Cc1ccc(-c2nc([P+](c3ccccc3)(c3ccccc3)c3ccccc3)c(N3CCOCC3)o2)cc1
Qualitative label: 1
